The reported numbers originate from patent US20210069342A1.

# Test System: T1, recombinant human ROR1-His (Sino Biological, 13968-H08H) (human, UniProt Q01973 30-406)
# T1 construct: extracellular domain; Bought protein; also called ROR1-HIS protein; not shown: His tag
# T1 sequence (Q01973 30-406): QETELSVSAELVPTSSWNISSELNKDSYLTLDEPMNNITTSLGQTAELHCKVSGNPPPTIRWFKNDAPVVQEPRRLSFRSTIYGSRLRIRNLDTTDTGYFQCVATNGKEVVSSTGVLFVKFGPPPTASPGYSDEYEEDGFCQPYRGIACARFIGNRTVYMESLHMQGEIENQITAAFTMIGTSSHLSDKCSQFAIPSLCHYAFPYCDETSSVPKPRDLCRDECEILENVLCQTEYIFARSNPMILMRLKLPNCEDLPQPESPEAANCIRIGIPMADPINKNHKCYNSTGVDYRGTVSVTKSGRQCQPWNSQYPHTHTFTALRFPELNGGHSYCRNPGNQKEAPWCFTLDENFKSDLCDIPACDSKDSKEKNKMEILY
# Test Summary: BLI (Octet), ROR1-His on Anti-Penta-His or AR2G biosensor, IgG 30 to 0.021 nM, 1:1 fit
Catalogue of Kd readings, one per entry.

Binder	Units Of Measure	Kd
anti-ROR1 IgG antibody DG6 (antibody, V domains shown, Full IgG form (human IgG1 constant region, lambda light chain), expressed in CHO-S cells) VH: EVQLLESGGGLVQPGGSLRLSCAASGFTFSDYDMSWVRQAPGKGLEWVSVISPDGGSIYYADSVKGRFTISRDNSKNTLYLQMNSLRAEDTAVYYCARDVVECNMNPCSYDNAMDVWGQGTLVTVSS VL: QSVLTQPPSASGTPGQRVTISCSGSSSNIGSNYVSWYQQLPGTAPKLLIYDDSHRPSGVPDRFSGSKSGTSASLAISGLRSEDEADYYCGAWDDSLSGYVFGGGTKLTVLG	nM	0.152
anti-ROR1 IgG antibody BA6 (antibody, V domains shown, Full IgG form (human IgG1 constant region, lambda light chain), expressed in CHO-S cells) VH: EVQLLESGGGLVQPGGSLRLSCAASGFTFSNYDMSWVRQAPGKGLEWVSAIYHSGSSKYYADSVKGRFTISRDNSKNTLYLQMNSLRAEDTAVYYCARGGNGAWDTGFDYWGQGTLVTVSS VL: QSVLTQPPSASGTPGQRVTISCSGSSSNIGSNDVSWYQQLPGTAPKLLIYYDNNRPSGVPDRFSGSKSGTSASLAISGLRSEDEADYYCGAWDDSLSGYVFGGGTKLTVLG	nM	0.0937
